Catalogue of MIC values
tested on: Salmonella; assay: Agar dilution MIC; assay type: cell-based; conditions: read-out: Agar Dilution MIC, strain X514
Value Type: MIC (µg/mL)

>>> df
                                   compound  value_type  observed_result
0  CC1(C)S[C@@H]2[C@H](NC(=O)[C@H](N)c3ccccc3)C(=O)N2[C@H]1C(=O)O [Ampicillin, reference compound]         MIC                1
1  COC1=C(C(=O)O)N2C(=O)[C@@H](NC(=O)[C@H](N)c3c[nH]c4ccccc34)C2SC1 (some centres unmarked)         MIC               16
2  N[C@@H](C(=O)N[C@@H]1C(=O)N2C(C(=O)O)=C(Cl)CSC12)c1c[nH]c2ccccc12 (some centres unmarked)         MIC               16
3  CC1=C(C(=O)O)N2C(=O)[C@@H](NC(=O)[C@H](N)c3c[nH]c4ccccc34)C2SC1 (some centres unmarked)         MIC               32
4  CC1=C(C(=O)O)N2C(=O)[C@@H](NC(=O)[C@H](N)c3ccccc3)[C@H]2SC1 [Cephalexin, reference compound]         MIC              0.6
